Every entry's value here was drawn from patent US9353067B2.

# testSummary: Pharmacokinetics of R-55 following intravenous administration in pigs
# Assay type: in vivo, White Landrace female pigs
# conditionsUsed: female, White Landrace, pig, plasma, iv, 0.2 mg/kg, 0.2 mg/kg intravenous, individual animals, read-out: Mean residence time (converted)
experimentalEndpoint: MRT (min)

> print(dat)
                                   compound  experimentalendpoint  numericresult
1  O=c1[nH]c(CN2CCN(c3cccc(O)c3)CC2)nc2ccccc12 [Compound R-55]                   MRT           14.5

---

# testSummary: Hydrolysis (half-life) of esterified derivatives of R-55 in rat plasma
# Format: in vitro ADME
# conditionsUsed: fresh rat plasma; hydrolysis of ester to R-55, rat plasma, 37° C.; read-out: T1/2 in rat plasma
Listing of entries alongside the reported half-life at 0.19 mg/ml.
experimentalEndpoint: half-life at 0.19 mg/ml (min)

> print(dat)
                                   molecule  resultoperator  numericresult
1  O=C(Oc1cccc(N2CCN(Cc3nc4ccccc4c(=O)[nH]3)CC2)c1)C12CC3CC(CC(C3)C1)C2 [Compound L-167]               =             58
2  COc1ccc(C(=O)Oc2cccc(N3CCN(Cc4nc5ccccc5c(=O)[nH]4)CC3)c2)cc1 [Compound L-162]               =             54
3  N#Cc1cccc(C(=O)Oc2cccc(N3CCN(Cc4nc5ccccc5c(=O)[nH]4)CC3)c2)c1 [Compound L-166]               =            7.1
4  CS(=O)(=O)Oc1cccc(N2CCN(Cc3nc4ccccc4c(=O)[nH]3)CC2)c1 [Compound L-164]               >           1000
5  O=C(Oc1cccc(N2CCN(Cc3nc4ccccc4c(=O)[nH]3)CC2)c1)C1CCCCC1 [Compound L-169]               =            4.7
